Assay: Cytotoxicity against Chlorocebus aethiops (African green monkey) Vero cells assessed as cell viability after 3 days by Alamar blue assay
Type: cell-based
Settings: chlorocebus sabaeus
property label: CC50 at 72 h (µg/mL)
Answer format: numeric, µg/mL implied, no suffix.

# annotated cases, reported CC50 at 72 h shown
Nc1nc(CSc2nc3ccccc3[nH]2)nc(Nc2ccc(Cl)cc2)n1	1500
Cc1ccccc1Nc1nc(N)nc(CSc2nnc(-c3ccncc3)n2-c2ccccc2)n1	1650
Cc1ccccc1Nc1nc(N)nc(CSc2nnc(-c3ccccc3)n2/N=C/c2ccccc2)n1	1250

Any idea what its CC50 at 72 h is? The molecule is "Cc1ccccc1Nc1nc(N)nc(CSc2nnc(-c3ccccc3)n2-c2ccccc2)n1"
1750

Name the reported CC50 at 72 h value associated with the molecule "COc1ccc(Nc2nc(N)nc(CSc3nnc(-c4ccccc4)n3/N=C/c3ccccc3)n2)cc1"
1500

Param item = "Nc1nc2c(ncn2COCCO)c(=O)[nH]1" ; retrieve measured CC50 at 72 h.
1280

Give its CC50 at 72 h value. Item: "COc1ccc(Nc2nc(N)nc(CSc3nnc(-c4ccncc4)n3-c3ccccc3)n2)cc1"
1500

State the recorded CC50 at 72 h for this entry: "Cc1ccccc1Nc1nc(N)nc(CSc2nnc(-c3ccccc3)n2/N=C/c2ccc(Br)cc2)n1"
1500

###

Test: Selectivity index, ratio of CC50 for african green monkey Vero cells to EC50 for HSV1 infected in African green monkey Vero cells
Each entry below carries its recorded Ratio CC50/EC50.
In your answer, state the number alone without any accompanying words.

Nc1nc(CSc2nc3ccccc3[nH]2)nc(Nc2ccc(Cl)cc2)n1	175
Nc1nc2c(ncn2COCCO)c(=O)[nH]1	850
Cc1ccccc1Nc1nc(N)nc(CSc2nnc(-c3ccccc3)n2/N=C/c2ccccc2)n1	358

Which value of Ratio CC50/EC50 has been reported for "Cc1ccccc1Nc1nc(N)nc(CSc2nnc(-c3ccccc3)n2/N=C/c2ccc(Br)cc2)n1" in the records?
300

Entry "COc1ccc(Nc2nc(N)nc(CSc3nnc(-c4ccccc4)n3/N=C/c3ccccc3)n2)cc1" : reported Ratio CC50/EC50 = ?
188

Need Ratio CC50/EC50 of "Cc1ccccc1Nc1nc(N)nc(CSc2nnc(-c3ccccc3)n2-c2ccccc2)n1" , thanks.
234

For "Cc1ccccc1Nc1nc(N)nc(CSc2nnc(-c3ccncc3)n2-c2ccccc2)n1" , what is its reported Ratio CC50/EC50?
275

# query: Ratio CC50/EC50 of entry "COc1ccc(Nc2nc(N)nc(CSc3nnc(-c4ccncc4)n3-c3ccccc3)n2)cc1"
215
